test system: HepG2; test: Cytotoxicity against human HepG2 cells assessed as reduction in cell viability incubated for 24 hrs by MTT assay; assay type: functional, cell-based; details: HepG2, 24 h
pIC50: −log10 of the molar value.
quantity-name: pIC50

1) CN1C/C(=C\c2ccncc2)C(=O)/C(=C/c2cc([N+](=O)[O-])ccc2F)C1 = 5.28
2) O=C1/C(=C/c2ccncc2)CN(S(=O)(=O)c2ccccc2)C/C1=C\c1ccccc1C(F)(F)F = 5.15
3) CN1C/C(=C\c2ccncc2)C(=O)/C(=C/c2ccc(C(F)(F)F)cc2)C1 = 5.09
4) CN1C/C(=C\c2cccnc2)C(=O)/C(=C/c2ccc(F)cc2Br)C1 = 4.89
5) O=C1/C(=C/c2cccnc2)CN(S(=O)(=O)c2ccc(C(F)(F)F)cc2)C/C1=C\c1ccccc1C(F)(F)F = 5.77
6) O=C1/C(=C/c2ccncc2)CN(S(=O)(=O)c2ccc(C(F)(F)F)cc2)C/C1=C\c1ccccc1F = 5.39
7) O=C1/C(=C/c2ccncc2)CN(S(=O)(=O)c2ccc(Cl)cc2)C/C1=C\c1ccccc1C(F)(F)F = 5.14
8) N#Cc1ccc(S(=O)(=O)N2C/C(=C\c3cccnc3)C(=O)/C(=C/c3ccccc3F)C2)cc1 = 5.18
9) O=C1/C(=C/c2ccccc2F)CNC/C1=C\c1ccccc1F = 5.48
10) O=C1/C(=C/c2ccncc2)CN(S(=O)(=O)c2ccc(F)cc2)C/C1=C\c1ccccc1C(F)(F)F = 5.40
11) CN1C/C(=C\c2ccc(C(F)(F)F)cc2)C(=O)/C(=C/c2cccnc2)C1 = 5.32
12) COc1cc(/C=C2\CN(C)C/C(=C\c3cccnc3)C2=O)cc(OC)c1OC = 5.02
13) O=C1/C(=C/c2cccnc2)CN(S(=O)(=O)c2ccc([N+](=O)[O-])cc2)C/C1=C\c1ccccc1C(F)(F)F = 5.03
14) CC(=O)Nc1ccc(S(=O)(=O)N2C/C(=C\c3ccncc3)C(=O)/C(=C/c3ccccc3C(F)(F)F)C2)cc1 = 5.32
15) CN1C/C(=C\c2cccnc2)C(=O)/C(=C/c2ccccc2F)C1 = 5.32
16) O=C1/C(=C/c2cccnc2)CN(S(=O)(=O)c2ccc(F)cc2)C/C1=C\c1ccccc1F = 4.81
17) Cc1ccc(S(=O)(=O)N2C/C(=C\c3cccnc3)C(=O)/C(=C/c3ccccc3C(F)(F)F)C2)cc1 = 5.53
18) O=C1/C(=C/c2ccncc2)CN(S(=O)(=O)c2ccccc2)C/C1=C\c1ccccc1F = 5.24

Just for reference, ChEMBL document CHEMBL4339189 is where these values come from.
